// provenance: patent US6683101B2

Target: NMDA receptor ([3H]ifenprodil binding site) (Rattus norvegicus, UniProt P35439+Q00960)
Construct: tissue Zivic-Miller Laboratories, Inc
Sequence (Q00960 27-1482, other chains not shown): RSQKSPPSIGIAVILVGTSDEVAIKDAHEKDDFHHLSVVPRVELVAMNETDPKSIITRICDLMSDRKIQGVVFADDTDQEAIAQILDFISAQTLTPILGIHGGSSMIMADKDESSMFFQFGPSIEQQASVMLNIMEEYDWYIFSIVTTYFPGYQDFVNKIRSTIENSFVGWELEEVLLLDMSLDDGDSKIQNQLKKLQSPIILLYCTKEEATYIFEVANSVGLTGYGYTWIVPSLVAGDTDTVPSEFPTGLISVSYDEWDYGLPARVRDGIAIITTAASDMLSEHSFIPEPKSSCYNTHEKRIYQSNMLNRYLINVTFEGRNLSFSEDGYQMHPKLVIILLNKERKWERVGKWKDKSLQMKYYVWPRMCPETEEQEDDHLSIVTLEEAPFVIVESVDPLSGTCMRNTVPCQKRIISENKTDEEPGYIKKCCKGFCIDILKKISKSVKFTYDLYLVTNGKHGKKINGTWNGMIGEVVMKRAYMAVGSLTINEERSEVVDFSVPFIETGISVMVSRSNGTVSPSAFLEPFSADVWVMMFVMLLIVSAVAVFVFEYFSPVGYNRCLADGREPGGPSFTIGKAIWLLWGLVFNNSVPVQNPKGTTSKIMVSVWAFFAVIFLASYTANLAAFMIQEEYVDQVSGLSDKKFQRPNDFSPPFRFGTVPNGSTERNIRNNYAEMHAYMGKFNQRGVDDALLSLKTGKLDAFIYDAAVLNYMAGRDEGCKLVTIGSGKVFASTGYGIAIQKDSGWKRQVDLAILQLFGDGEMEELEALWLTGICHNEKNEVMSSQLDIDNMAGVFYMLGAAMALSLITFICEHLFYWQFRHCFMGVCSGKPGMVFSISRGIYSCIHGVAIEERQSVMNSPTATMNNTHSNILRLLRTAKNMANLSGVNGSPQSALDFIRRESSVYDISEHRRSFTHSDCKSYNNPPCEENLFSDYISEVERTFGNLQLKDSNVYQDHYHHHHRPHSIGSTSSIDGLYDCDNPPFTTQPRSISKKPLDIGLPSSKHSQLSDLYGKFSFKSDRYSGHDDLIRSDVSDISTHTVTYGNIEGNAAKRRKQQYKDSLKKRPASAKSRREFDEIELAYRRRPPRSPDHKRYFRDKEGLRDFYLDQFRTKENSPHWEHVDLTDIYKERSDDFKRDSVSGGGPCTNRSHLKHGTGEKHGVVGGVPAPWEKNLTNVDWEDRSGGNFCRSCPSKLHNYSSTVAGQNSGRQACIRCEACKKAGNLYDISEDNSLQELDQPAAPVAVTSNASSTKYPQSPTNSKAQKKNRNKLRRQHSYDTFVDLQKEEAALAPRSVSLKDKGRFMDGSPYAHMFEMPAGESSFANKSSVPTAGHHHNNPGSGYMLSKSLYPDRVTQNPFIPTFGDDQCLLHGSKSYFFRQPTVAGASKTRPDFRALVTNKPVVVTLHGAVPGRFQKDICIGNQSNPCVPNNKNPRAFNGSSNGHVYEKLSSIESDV
Test: [3H]Ifenprodil binding assay, rat forebrain membranes
Details: adult rat forebrain membranes, 4 nM [3H]-ifenprodil, 2 hours at room temperature, pH 7.4
recorded-metric: IC50 (µM)

Here are 2 compounds together with their reported answers.
In [3]: df
Out[3]:
                                   compound                             tested_target  units_label  data_value
0  CN(CCCc1ccc2[nH]c(=O)oc2c1)[C@H]1CC[C@H](c2ccc(F)cc2)CC1 [Example 6]  NMDA receptor ([3H]ifenprodil binding site) (Rattus norvegicus, UniProt P35439+Q00960)           µM        0.73
1  O=c1[nH]c2ccc(CCCN[C@H]3CC[C@H](c4ccccc4)CC3)cc2o1 [Example 1]  NMDA receptor ([3H]ifenprodil binding site) (Rattus norvegicus, UniProt P35439+Q00960)           µM       0.053

a. O=c1[nH]c2ccc(SCCN[C@H]3CC[C@H](c4ccccc4)CC3)cc2o1 [Example 4]
b. CN(CC(O)c1ccc2[nH]c(=O)[nH]c2c1)[C@H]1CC[C@H](c2ccccc2)CC1 (some centres unmarked) [Example 5]
Which of the two gives a bigger number for IC50: a or b ? Which one? Tell me its label.
b

====

Molecular target: NR2A/NR2B (Rattus norvegicus, UniProt Q00960)
Sequence (Q00960 27-1482, other chains not shown): as above
Assay: Electrophysiological assay at NMDA receptor subunits expressed in Xenopus oocytes (two-electrode voltage clamp)
Conditions: cloned rat NMDA receptor subunits in Xenopus oocytes; currents activated by glutamate (100 μM) and glycine (1-100 μM); read-out: NR2A/NR2B Oocyte IC50
pIC50: −log10 of the molar value.
recorded-metric: pIC50

                                   molecule  recorded_metric  data_value
0  O=c1[nH]c2ccc(OCCN[C@H]3CC[C@H](c4ccccc4)CC3)cc2[nH]1 [Example 8b]            pIC50        6.92

1. O=c1[nH]c2ccc(OCCN[C@H]3CC[C@@H](c4ccccc4)CC3)cc2[nH]1 [Example 8a]
2. O=c1[nH]c2ccc(CCCN[C@H]3CC[C@H](c4ccc(F)cc4)CC3)cc2o1 [Example 2]
3. CN(CCN[C@H]1CC[C@H](c2ccccc2)CC1)c1ccc2[nH]c(=O)oc2c1 [Example 3]
Rank items: key pIC50, increasing. Give me the labels in the order the question wants.
3, 1, 2

====

Counter-ions that a name gives are not always drawn.
recorded-metric: melting point

Here are 5 molecules together with their reported answers.
>>> df
                                   molecule  recorded_metric     data_value
0  CN(CCCc1ccc2[nH]c(=O)oc2c1)[C@H]1CC[C@H](c2ccc(F)cc2)CC1 (as salt: HCl)    melting point  235 to 241 °C
1  CCN(CCCc1ccc2[nH]c(=O)oc2c1)[C@H]1CC[C@H](c2ccc(F)cc2)CC1 (as salt: HCl)    melting point   99 to 109 °C
2  O=c1[nH]c2ccc(OCCN[C@H]3CC[C@H](c4ccccc4)CC3)cc2[nH]1 (as salt: HCl)    melting point  315 to 320 °C
3  CN(CCN[C@H]1CC[C@H](c2ccccc2)CC1)c1ccc2[nH]c(=O)oc2c1 (as salt: HCl)    melting point  229 to 234 °C
4  O=c1[nH]c2ccc(CCCN[C@H]3CC[C@H](c4ccccc4)CC3)cc2o1    melting point  218 to 223 °C

Name the recorded melting point for O=c1[nH]c2ccc(CCCN[C@H]3CC[C@H](c4ccc(F)cc4)CC3)cc2o1 (as salt: HCl) .
295 to 303 °C

Now this one: O=c1[nH]c2ccc(OCCN[C@H]3CC[C@@H](c4ccccc4)CC3)cc2[nH]1 (as salt: HCl)
232 to 237 °C
